# Response listing for each entry below
- target-entity: T1, biotinylated recombinant human IL-12Rβ2 (produced in-house) (human, UniProt Q99665 24-622, random biotinylated)
- T1 construct: also called hIL-12RB2; hIL12RB2
- T1 sequence: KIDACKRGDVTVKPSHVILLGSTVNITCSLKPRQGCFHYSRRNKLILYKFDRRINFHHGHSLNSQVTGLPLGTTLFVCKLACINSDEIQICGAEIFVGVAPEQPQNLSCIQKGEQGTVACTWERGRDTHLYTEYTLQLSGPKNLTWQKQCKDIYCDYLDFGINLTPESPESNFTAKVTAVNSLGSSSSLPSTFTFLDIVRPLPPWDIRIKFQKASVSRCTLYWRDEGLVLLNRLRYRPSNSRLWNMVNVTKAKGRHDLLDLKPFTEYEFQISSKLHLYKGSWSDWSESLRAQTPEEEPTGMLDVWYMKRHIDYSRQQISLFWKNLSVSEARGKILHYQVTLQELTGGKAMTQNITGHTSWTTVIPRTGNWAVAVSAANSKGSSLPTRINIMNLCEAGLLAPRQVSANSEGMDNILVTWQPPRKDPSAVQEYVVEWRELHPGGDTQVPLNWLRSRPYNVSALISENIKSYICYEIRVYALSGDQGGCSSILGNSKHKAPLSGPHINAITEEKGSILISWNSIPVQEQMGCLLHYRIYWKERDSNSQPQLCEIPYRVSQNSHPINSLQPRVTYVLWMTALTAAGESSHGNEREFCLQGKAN
- procedure-details: BLI (Octet), P.E. VHH on immobilised biotinylated hIL-12RB2

binder	Response
anti-IL-12Rβ2 VHH clone 3CAHM11 (VHH, not shown: small tags and cut ends, tested as periplasmic extract) VHH: QVQLQESGGGLVQAGGSLRLSCAASGRTFNNYAMAWFRQAPGKEREFIAAITRSDTTLYIDSVKGRFTISRDNAKNTVALQMNSLKPEDTAVYYCAAGMPYSYSDYPRDSKYDYWGRGTQVTVSS	1.4
anti-IL-12Rβ2 VHH clone 3CRH5 (VHH, not shown: small tags and cut ends, tested as periplasmic extract; also called 3CRHS) VHH: QVQLQESGGGLVQAGGSLVLSCAASGSAALIFLMSWYRQAPGKQRELVAEVSRGGSTTYADSVEGRFTISRDNAKNIVDLQMNSLKPEDTAVYYCKADQNYGDSLRSSWGQGTQVTVSS	0.491
